# tested.on: E. coli DNA topoisomerase I (Escherichia coli, UniProt P06612)
# Sequence (P06612 whole entry): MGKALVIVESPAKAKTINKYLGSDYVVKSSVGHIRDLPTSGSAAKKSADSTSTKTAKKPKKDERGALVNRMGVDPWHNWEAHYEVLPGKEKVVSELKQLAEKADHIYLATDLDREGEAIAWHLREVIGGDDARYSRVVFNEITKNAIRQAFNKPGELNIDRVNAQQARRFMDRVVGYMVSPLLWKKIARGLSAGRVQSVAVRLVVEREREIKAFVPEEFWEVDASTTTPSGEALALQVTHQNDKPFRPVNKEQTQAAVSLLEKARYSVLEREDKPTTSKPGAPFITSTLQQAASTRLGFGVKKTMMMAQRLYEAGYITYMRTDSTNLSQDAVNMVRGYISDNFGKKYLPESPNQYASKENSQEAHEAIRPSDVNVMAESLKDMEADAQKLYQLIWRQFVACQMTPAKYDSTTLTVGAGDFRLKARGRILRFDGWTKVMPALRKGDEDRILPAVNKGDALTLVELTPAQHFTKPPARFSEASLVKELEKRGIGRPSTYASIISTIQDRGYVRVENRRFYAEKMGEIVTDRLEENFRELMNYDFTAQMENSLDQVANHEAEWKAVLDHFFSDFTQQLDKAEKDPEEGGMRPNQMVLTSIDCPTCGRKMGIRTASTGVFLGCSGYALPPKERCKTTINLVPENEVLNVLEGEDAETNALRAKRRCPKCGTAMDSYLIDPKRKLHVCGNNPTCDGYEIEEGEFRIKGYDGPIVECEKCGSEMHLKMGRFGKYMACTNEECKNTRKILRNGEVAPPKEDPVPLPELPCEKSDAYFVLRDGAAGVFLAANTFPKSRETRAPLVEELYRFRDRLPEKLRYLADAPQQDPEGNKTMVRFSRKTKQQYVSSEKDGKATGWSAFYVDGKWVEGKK
# assay: Inhibition assay against E. coli DNA topoisomerase I (plasmid relaxation, agarose gel)
# Type: biochemical
# details: 6 nM enzyme, supercoiled pBAD-GFPuv, 15 min 37° C.; average of at least three determinations; read-out: IC50 ecTopo I
property.name: IC50 (µM)

molecule	measured
CN1CCN(c2ccc3[nH]c(-c4ccc5[nH]c(-c6ccc(O)cc6)nc5c4)nc3c2)CC1 [Hoechst 33258, reference compound]	19.5
C#CCOCCCCOc1ccc(-c2nc3ccc(-c4nc5ccc(N6CCN(C)CC6)cc5[nH]4)cc3[nH]2)cc1 [DPA 154]	6.63
C#CCCCCCCCCCOc1ccc(-c2nc3ccc(-c4nc5ccc(N6CCN(C)CC6)cc5[nH]4)cc3[nH]2)cc1 [DPA 153]	2.47
C#CCCCCOc1ccc(-c2nc3ccc(-c4nc5ccc(N6CCN(C)CC6)cc5[nH]4)cc3[nH]2)cc1 [DPA 152]	4.57
C#CCOc1ccc(-c2nc3ccc(-c4nc5ccc(N6CCN(C)CC6)cc5[nH]4)cc3[nH]2)cc1 [DPA 151]	5.5
CCOc1ccc(-c2nc3ccc(-c4nc5ccc(N6CCN(C)CC6)cc5[nH]4)cc3[nH]2)cc1 [Hoechst 33342, reference compound]	29.8
